- System: RXF 393 renal
- experimentNotes: NCI tumour cell line growth inhibition, 48 h
valueType: TGI

Q: Tell me TGI reported for Nn1c(NNC(=O)C(=O)Nc2cc(Cl)c(Cl)cc2Cl)n[nH]c1=S
Result: > 100 µM

Q: Tell me TGI reported for CCCCCCCCCCCC(=O)Oc1c(Cl)cc(Cl)c(OC(=O)C(=O)Oc2c(Cl)cc(Cl)c(OC(=O)CCCCCCCCCCC)c2Cl)c1Cl
Result: > 100 µM

Q: Tell me TGI reported for CN(C)CCCNC(CC#N)CCC#N (stereo not given)
Result: > 10 µM

Q: Tell me TGI reported for Cc1nc(N)nc(N)c1-c1ccc(Cl)c(Cl)c1
Result: > 79.9 µM

Q: Tell me TGI reported for CCOC(=O)N(Cc1cccs1)c1cc(OC)c(OC)c(OC)c1
Result: > 100 µM

---

So I've got a bunch of compounds here, and I need their TGI values.
- Test system: RXF 393 renal
- experimentNotes: NCI tumour cell line growth inhibition, 48 h

Q: Tell me TGI reported for O=C(CCCN1CCC2(CC1)OC(=O)N(c1ccccc1)C2=O)c1ccccc1
Result: > 100 µM

Q: Tell me TGI reported for COCCN(C(C)=O)C1CCC2(SCCS2)c2[nH]c3ccccc3c21 (stereo not given)
Result: > 100 µM

Q: Tell me TGI reported for CN(C)CCCNC(=O)CCNC(=O)c1cc(NC(=O)c2cc(NC(=O)c3cc(NC(=O)c4nc(NC(=O)CCCNC(=O)c5cc(NC(=O)c6cc(NC(=O)c7cc(NC(=O)c8nccn8C)cn7C)cn6C)cn5C)cn4C)cn3C)cn2C)cn1C
Result: > 100 µM

Q: Tell me TGI reported for N#C/C(=C\c1ccc(O)c(O)c1)C(N)=S
Result: > 89.7 µM

Q: Tell me TGI reported for CN1CCC(n2cnc(-c3ccc(F)cc3)c2-c2ccnc(NCCO)n2)CC1
Result: > 25 µM

---

So I've got a bunch of molecules here, and I need their TGI values.
- Test system: HOP-62 NSCLC
- experimentNotes: NCI tumour cell line growth inhibition, 48 h

Q: Tell me TGI reported for O=C(COc1ccc2c(=O)cc(-c3ccccc3)oc2c1)N1CCN(c2ccccc2)CC1
Result: > 100 µM

Q: Tell me TGI reported for COc1cc(C=C2C(C)=NN(c3cccc(Cl)c3)C23SCC(=O)N3c2nc3ccccc3s2)ccc1O (centres undefined)
Result: 91.5 µM

Q: Tell me TGI reported for COc1cc(C2CC(c3ccc4c(c3)OCO4)=NN2C=O)cc(OC)c1OC (centres undefined)
Result: > 100 µM

Q: Tell me TGI reported for CCS(=O)(=O)Nc1ccc(Nc2c3ccccc3nc3ccccc23)c(OC)c1
Result: 1.21 µM

Q: Tell me TGI reported for CCNCCNc1c2ccccc2nc2ccccc12
Result: 4.21 µM

Q: Tell me TGI reported for COc1ccc(OCc2nc3cc(C(F)(F)F)ccc3nc2-c2ccccc2)cc1
Result: > 100 µM

Q: Tell me TGI reported for NC(=O)c1cc2cc(Cl)cc(Cl)c2oc1=Nc1ccc(F)cc1
Result: > 100 µM

Q: Tell me TGI reported for COc1cc(/C=C/C(=O)c2ccc(NS(=O)(=O)c3cc([N+](=O)[O-])ccc3C)cc2)cc(OC)c1OC
Result: 11.4 µM

Q: Tell me TGI reported for Oc1cccc2ccc(N/N=C/c3cc(CN4CCCCC4)c(O)c4ncccc34)nc12
Result: 8.04 µM

Q: Tell me TGI reported for O=c1cc(NNc2ccccc2)[nH]c(=S)[nH]1
Result: > 100 µM

Q: Tell me TGI reported for CN(C)CCNc1c2c(c(NCCN(C)C)c3[nH]ccc13)C(=O)c1ccccc1C2=O
Result: 9.27 µM

Q: Tell me TGI reported for COc1cc(/C=C/c2cc(O)c3cc(C(C)=O)c(=O)oc3c2)cc2c1O[C@]1(C)CC[C@@H](O)C(C)(C)[C@H]1C2
Result: > 79.9 µM

Q: Tell me TGI reported for CC(=O)N1C(=O)/C(=C\C(=O)c2ccc([N+](=O)[O-])cc2)c2ccccc21
Result: > 100 µM

Q: Tell me TGI reported for COc1ccc2c(c1)cn1c3ccc(O)cc3nc(N)c21
Result: 8.18 µM

Q: Tell me TGI reported for CCCC(=O)OC1C(C(O)CO)OC2OC(C)(C)OC21 (centres undefined)
Result: > 100 µM

Q: Tell me TGI reported for Nc1ccccc1C#C/C=C\C#Cc1cccs1
Result: 33.2 µM

Q: Tell me TGI reported for CCOC(=O)c1c(N)sc2c1C(C(=O)OCC)CC2 (centres undefined)
Result: > 100 µM

Q: Tell me TGI reported for C=CCNc1nc(C#N)c(N)s1
Result: > 10 µM

Q: Tell me TGI reported for CC1SC2=NC3=C(c4ccccc4C3=O)C(c3ccc(F)cc3)N2C1=O (centres undefined)
Result: > 100 µM
